Hello, the source for this data is ChEMBL document CHEMBL5113527, in case you need it.

Target: Protein deacetylase HDAC6 (Homo sapiens)
Sequence (Q9UBN7 whole entry): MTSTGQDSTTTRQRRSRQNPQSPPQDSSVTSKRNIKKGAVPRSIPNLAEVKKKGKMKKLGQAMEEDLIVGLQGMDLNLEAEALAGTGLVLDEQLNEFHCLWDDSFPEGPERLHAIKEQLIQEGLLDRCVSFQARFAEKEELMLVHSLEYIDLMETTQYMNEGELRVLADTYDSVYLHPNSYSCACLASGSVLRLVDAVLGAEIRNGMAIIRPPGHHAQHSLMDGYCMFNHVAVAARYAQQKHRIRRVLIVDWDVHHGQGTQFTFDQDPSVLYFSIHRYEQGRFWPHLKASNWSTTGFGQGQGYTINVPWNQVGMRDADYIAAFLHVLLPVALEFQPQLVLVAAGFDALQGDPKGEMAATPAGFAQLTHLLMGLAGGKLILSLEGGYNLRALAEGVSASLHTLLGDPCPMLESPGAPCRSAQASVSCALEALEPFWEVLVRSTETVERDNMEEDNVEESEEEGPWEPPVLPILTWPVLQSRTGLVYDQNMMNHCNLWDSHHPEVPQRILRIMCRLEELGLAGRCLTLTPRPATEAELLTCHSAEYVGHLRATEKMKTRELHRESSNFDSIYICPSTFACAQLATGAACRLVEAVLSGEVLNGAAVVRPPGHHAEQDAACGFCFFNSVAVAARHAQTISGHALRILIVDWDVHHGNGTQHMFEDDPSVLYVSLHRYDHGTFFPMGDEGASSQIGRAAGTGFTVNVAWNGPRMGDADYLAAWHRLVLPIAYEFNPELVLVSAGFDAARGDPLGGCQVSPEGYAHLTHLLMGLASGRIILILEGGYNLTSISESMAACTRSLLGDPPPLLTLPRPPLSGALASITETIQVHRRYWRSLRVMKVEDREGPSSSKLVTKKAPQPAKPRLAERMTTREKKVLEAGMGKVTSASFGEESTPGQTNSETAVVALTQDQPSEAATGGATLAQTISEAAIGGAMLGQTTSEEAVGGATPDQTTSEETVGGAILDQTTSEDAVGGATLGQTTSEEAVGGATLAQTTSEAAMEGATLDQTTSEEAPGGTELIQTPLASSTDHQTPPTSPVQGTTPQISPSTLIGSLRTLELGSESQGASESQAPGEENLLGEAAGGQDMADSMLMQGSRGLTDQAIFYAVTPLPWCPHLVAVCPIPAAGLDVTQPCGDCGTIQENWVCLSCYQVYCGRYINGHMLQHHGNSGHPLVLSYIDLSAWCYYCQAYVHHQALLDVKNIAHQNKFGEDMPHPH
Assay: Inhibition of recombinant HDAC6 (unknown origin) using Boc-Lys(acetyl)-AMC as substrate preincubated for 60 mins followed by substrate addition and measured after 2 hrs by fluorescence based microplate reader analysis
endpoint-label: pIC50
Field pIC50 (float): negative decimal logarithm of the concentration in molar.

// field: pIC50; key: CCNNC(=O)c1ccc(CN2c3ccccc3C=Cc3ccncc32)cc1 ; value = 7.49
